Test system: Mycobacterium tuberculosis
assayProtocol: Antimycobacterial activity against 6-((1-(2-(7-chloro-2-oxo-1,8-naphthyridin-1(2H)-yl)ethyl)piperidin-4-ylamino)methyl)-2H-pyrido[3,2-b][1,4]oxazin-3(4H)-one resistant Mycobacterium tuberculosis H37Rv harboring DNA gyraseA A74V mutant incubated for 7 days by microdilution method
Type: functional
We begin with a simple list: items and their reported MIC.
Numbers only; they are read as µM.

[[record]]
smilesinput = "O=C(O)c1cn(C2CC2)c2cc(N3CCNCC3)c(F)cc2c1=O"
propertyname = "MIC"
uom = "µM"
endpointvalue = 0.5


Now for a further compound.
# query: MIC of entry "O=C1COc2ccc(CNC3CCN(CCn4c(=O)ccc5ccc(Oc6cncnc6)nc54)CC3)nc2N1"
50
